What EC50 was measured for each of the following?
- Tested on: SARS-CoV-2
- PROCEDURE_SUMMARY: Inhibitory activity of cytopathic effect (CPE) in HEK293T/ACE2-TMPRSS2 cells
- Assay type: cell-based
- MEASUREMENT_PARAMETERS: Severe acute respiratory syndrome coronavirus 2, HEK-293T, 72 h; HEK293T/ACE2-TMPRSS2 cells, cultured 3 days, CellTiter-Glo 2.0 luminescence; read-out: EC50 (50% SARS-CoV-2 infected cell death inhibitory concentration)

Below, 2 molecules whose answers are already recorded.
> print(dat)
                               entry.smiles  assay.readout  observed
1  N#Cc1ccc(Cl)c(-c2cc3c(c(=O)n(-c4cnc5ccccn45)c(=O)n3Cc3cc(F)c(F)c(F)c3)c3nccnc23)c1           EC50  < 100 nM
2  COc1cc(-c2cc3c(C(F)(F)F)n[nH]c3cc2Cl)cc2c1c(=O)n(Cc1ncn(C)n1)c(=O)n2Cc1cc(F)c(F)c(F)c1           EC50  < 100 nM

Exam item: Entry under review: `[2H]C([2H])([2H])O[C@@H]1CCN(c2cc3c(c(OC)n2)c(=O)n(-c2cncc(OC(F)F)c2)c(=O)n3-c2ccc(F)c(Cl)c2)C1` . Reported EC50?
Marked response: < 100 nM
